Consider the following molecules and their measured pIC50 readings.
Target: purified human Hsp90
Assay: Binding Assay: fluorescence polarization with BODIPY-labeled geldanamycin
Conditions: BODIPY-GM 10 nM, Hsp90 30 nM
Description: Compound binding to purified Hsp90 was monitored using BODIPY-labeled geldanamycin (BODIPY-GM) in a fluorescence polarization assay adapted from Kim et al. (Journal of Biomolecular Screening 2004, 9(5):375-381). […] Parallel and perpendicular fluorescence measurements were read (LJL BioSystems Analyst AD plate reader) with excitation/emission wavelengths of 485/530 nm. […]
Expect pIC50 as a plain number equal to -log10 of the molar concentration.

Consider the following illustrative entries.
Cc1ncsc1CCn1c(Sc2cc3c(cc2Br)OCO3)nc2c(N)ncnc21    7.15
CC(C)NC(=O)N1CCCC(CCn2c(Sc3cc4c(cc3Br)OCO4)nc3c(N)ncnc32)C1 (centres unmarked)    6.41
CC(=O)c1ccc(CCn2c(Sc3cc4c(cc3Br)OCO4)nc3c(N)ncnc32)cc1    6.10

Hi! What's the reported pIC50 for CC(C)(C)OC(=O)N[C@H]1CC[C@@H](CCn2c(Sc3cc4c(cc3Br)OCO4)nc3c(N)ncnc32)CC1 on purified human Hsp90?
6.85

// next record Nc1ncnc2c1nc(Sc1cc3c(cc1Br)OCO3)n2CCN1C(=O)CCCC1=O
7.09

// next record CC(=O)N1CCCC(CCn2c(Sc3cc4c(cc3Br)OCO4)nc3c(N)ncnc32)C1 (centres unmarked)
5.22

###

molecular target: purified human Hsp90; test: Binding Assay: fluorescence polarization with BODIPY-labeled geldanamycin; conditions: BODIPY-GM 10 nM, Hsp90 30 nM
measured metric: log10(IC50) (log10 of the value in nM)
On a log10 scale: recorded IC50, unit nM.

Consider the following illustrative entries.
COc1cc(CCn2c(Sc3cc4c(cc3Br)OCO4)nc3c(N)ncnc32)cc(OC)c1    1.90
Nc1ncnc2c1nc(Sc1cc3c(cc1Br)OCO3)n2CCC(N)C1CCCC1 (centres unmarked)    2.10
Nc1ncnc2c1nc(Sc1ccc3c(c1)CCC3=O)n2CCC1CCN(C=O)CC1    2.85
Nc1ncn(CCN2CCCCC2)c2nc(Sc3cc4c(cc3Br)OCO4)nc1-2    2.95

# log10(IC50) lookup, item CCOC(=O)CNC(=O)N1CCC(CCn2c(Sc3cc4c(cc3Br)OCO4)nc3c(N)ncnc32)CC1
1.57

###

Consider the following molecules and their measured % Inhibition at 5 μM Compound Concentration readings.
test system: purified human Hsp90; experiment: Binding Assay: fluorescence polarization with BODIPY-labeled geldanamycin; details: 5 μM compound, BODIPY-GM 10 nM, Hsp90 30 nM
Give just the number in %; leave the unit off.

Consider the following illustrative entries.
Nc1ncnc2c1nc(Sc1cc3c(cc1Br)OCO3)n2CCc1cccc2ccccc12    58
CC1(C)CC(CCn2cnc(N)c3nc(Sc4cc5c(cc4Br)OCO5)nc2-3)CC(C)(C)N1    8
COc1cc(Sc2nc3c(N)ncn(CCC4CCN(C=O)CC4)c-3n2)c2ocnc2c1    1.00

# % Inhibition at 5 μM Compound Concentration lookup, item Nc1ncn(CCc2cccc(F)c2F)c2nc(Sc3cc4c(cc3Br)OCO4)nc1-2
0

// next record CC(C)(C)NC(=O)N1CCCC(CCn2cnc(N)c3nc(Sc4cc5c(cc4Br)OCO5)nc2-3)C1 (centres unmarked)
4

// next record Nc1ncnc2c1nc(Sc1ccc3c(c1)OCO3)n2CCc1ccc([N+](=O)[O-])cc1
22

// next record COc1ccc(OC)c(Sc2nc3c(N)ncn(CCc4ccc(S(=O)(=O)O)cc4)c-3n2)c1
6

// next record COc1ccc(C)cc1Sc1nc2c(N)ncn(CCc3ccccc3Cl)c-2n1
0.0

###

tested on: purified human Hsp90; experiment: Binding Assay: fluorescence polarization with BODIPY-labeled geldanamycin; conditions: 5 μM compound, BODIPY-GM 10 nM, Hsp90 30 nM
Answer class 0 if % Inhibition at 5 μM Compound Concentration is under 4%, and class 1 if it is 4% or more.

Nc1ncn(CCC23CC4CC(CC(C4)C2)C3)c2nc(Sc3cc4c(cc3Br)OCO4)nc1-2    class 0
Nc1ncn(CCC2CCN(S(=O)(=O)C(F)(F)F)CC2)c2nc(Sc3cc4c(cc3Br)OCO4)nc1-2    class 1
CC(C)C(Cn1cnc(N)c2nc(Sc3cc4c(cc3Br)OCO4)nc1-2)c1ccccc1 (centres unmarked)    class 1
N#Cc1ccc(Sc2nc3c(N)ncn(CCc4ccccc4)c-3n2)cc1    class 0
CC(C)(C)OC(=O)N1CC(CCn2cnc(N)c3nc(Sc4cc5c(cc4Br)OCO5)nc2-3)C1    class 1
Cc1ccc(CCn2cnc(N)c3nc(Sc4cc5c(cc4Br)OCO5)nc2-3)cc1    class 0

Pending compound:
Entry COc1ccc(OC)c(Sc2nc3c(N)ncn(CCc4ccc(Cl)cc4Cl)c-3n2)c1 : is its % Inhibition at 5 μM Compound Concentration no less than 4%?
class 0

###

target: purified human Hsp90; assay: Binding Assay: fluorescence polarization with BODIPY-labeled geldanamycin; details: BODIPY-GM 10 nM, Hsp90 30 nM
Consider the following compounds and their measured IC50 readings.
Give just the number in nM; leave the unit off.

Consider the following illustrative entries.
COC(=O)[C@H](CCSC)NC(=O)N1CCCC(CCn2c(Sc3cc4c(cc3Br)OCO4)nc3c(N)ncnc32)C1 (some centres unmarked) [Example 507]    405
COc1cccc(CCn2c(Sc3cc(OC)ccc3OC)nc3c(N)ncnc32)c1 [Example 35]    800
COc1ccc(CN2CCC(CCn3c(Sc4cc5c(cc4Br)OCO5)nc4c(N)ncnc43)CC2)cc1 [Example 594]    270
COc1ccc(OC)c(Sc2nc3c(N)ncnc3n2CCc2ccccc2C(F)(F)F)c1 [Example 183]    1100
CC(=O)N1CCC[C@H]1C(=O)N1CCC(CCn2c(Sc3cc4c(cc3Br)OCO4)nc3c(N)ncnc32)CC1 [Example 776]    310
CC(C)NC(=O)N1CCC(CCn2c(Sc3cc4c(cc3Br)OCO4)nc3c(N)ncnc32)CC1 [Example 432]    65

Here is another compound to look at.
# IC50 lookup, item CC(C)C[C@H](NC(=O)OC(C)(C)C)C(=O)N1CCCC(CCn2c(Sc3cc4c(cc3Br)OCO4)nc3c(N)ncnc32)C1 (some centres unmarked) [Example 719]
800

###

biological target: purified human Hsp90; test: Binding Assay: fluorescence polarization with BODIPY-labeled geldanamycin; settings: BODIPY-GM 10 nM, Hsp90 30 nM
measured metric: pIC50
Expect pIC50 as a plain number equal to -log10 of the molar concentration.

Nc1ncnc2c1nc(Sc1cc3c(cc1Br)OCO3)n2CCc1cccs1    7.05
COc1ccc(CCn2c(Sc3cc4c(cc3Br)OCO4)nc3c(N)ncnc32)cc1    6.05
Nc1ncnc2c1nc(Sc1cc3c(cc1Br)OCO3)n2CCC1CCN(C(=O)[C@@H](O)CO)CC1    6.92

Here is another molecule to look at.
# pIC50 lookup, item Nc1ncnc2c1nc(Sc1cc3c(cc1Br)OCO3)n2CCC1CCN(C(=O)[C@@H]2CCCCN2)CC1
7.30

###

test system: purified human Hsp90; assay: Binding Assay: fluorescence polarization with BODIPY-labeled geldanamycin; details: 5 μM compound, BODIPY-GM 10 nM, Hsp90 30 nM
Consider the following molecules and their measured % Inhibition at 5 μM Compound Concentration readings.
Give me the value, and tack the unit on after it.

Consider the following illustrative entries.
CC(C)(C)OC(=O)N1CCC[C@H](CCn2cnc(N)c3nc(Sc4cc5c(cc4Br)OCO5)nc2-3)C1 [Example 393]    0%
CCOC(=O)CNC(=O)N1CCC(CCn2cnc(N)c3nc(Sc4cc5c(cc4Br)OCO5)nc2-3)CC1 [Example 443]    36%
COc1ccc(OC)c(Sc2nc3c(N)ncn(CCC4CCN(C=O)CC4)c-3n2)c1 [Example 359]    3%

# % Inhibition at 5 μM Compound Concentration lookup, item Nc1ncnc2c1nc(Sc1ccc3c(c1)OCO3)n2CCc1ccccc1 [Example 4]
75%

###

tested on: purified human Hsp90; experiment: Binding Assay: fluorescence polarization with BODIPY-labeled geldanamycin; details: 5 μM compound, BODIPY-GM 10 nM, Hsp90 30 nM
Decide using % Inhibition at 5 μM Compound Concentration alone. Strictly below 20%: true. Equal to or above 20%: false.

Does CC(C)(C)OC(=O)N1CCCC1CCn1cnc(N)c2nc(Sc3cc4c(cc3Br)OCO4)nc1-2 (stereo not shown) have % Inhibition at 5 μM Compound Concentration strictly under 20%?
true

// next record CC(=O)c1ccc(CCn2c(Sc3cc4c(cc3Br)OCO4)nc3c(N)ncnc32)cc1
false

// next record CCn1nnnc1N1CCC(CCn2cnc(N)c3nc(Sc4cc5c(cc4Br)OCO5)nc2-3)CC1
false

// next record CC(C)(C)OC(=O)NC(CCn1cnc(N)c2nc(Sc3cc4c(cc3Br)OCO4)nc1-2)C1CC1 (stereo not shown)
true

// next record COc1ccc(I)c(Sc2nc3c(N)ncn(CCc4ccc(I)cc4)c-3n2)c1
true

// next record CC(C)(C)OC(=O)N1CCCC[C@H]1CCn1cnc(N)c2nc(Sc3cc4c(cc3Br)OCO4)nc1-2
true

// next record Nc1ncn(CCc2ccccc2Cl)c2nc(Sc3ccc4c(c3)OC(F)(F)O4)nc1-2
true

Values compiled from patent US7595401B2.
